The entries below come with measured protein stability index values attached.
B1: ADD1 (parent)
chain: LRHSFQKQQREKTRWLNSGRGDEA

Variants of: B1
measurement.notes: protein stability index of a GFP-peptide fusion (GPS, HEK-293T) (PSI 1-6); higher = more stable;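 note: lentivirally expressed fusions sorted by FACS into six bins by GFP to DsRed ratio, PSI derived from sequencing read proportions per bin multiplied by bin number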
protocol.conditions: c terminus: a fixed tail appended
# output: bare number, no unit

Examples from the recorded data:
N17H ... 2.54
Q8T ... 3.93

Here is another variant to look at.
Suppose we examine the variant Q9Y ; what protein stability index value has been reported? 3.01
